# system: CDK9/Cyclin T (Homo sapiens, UniProt P50750)
# Sequence (P50750 whole entry): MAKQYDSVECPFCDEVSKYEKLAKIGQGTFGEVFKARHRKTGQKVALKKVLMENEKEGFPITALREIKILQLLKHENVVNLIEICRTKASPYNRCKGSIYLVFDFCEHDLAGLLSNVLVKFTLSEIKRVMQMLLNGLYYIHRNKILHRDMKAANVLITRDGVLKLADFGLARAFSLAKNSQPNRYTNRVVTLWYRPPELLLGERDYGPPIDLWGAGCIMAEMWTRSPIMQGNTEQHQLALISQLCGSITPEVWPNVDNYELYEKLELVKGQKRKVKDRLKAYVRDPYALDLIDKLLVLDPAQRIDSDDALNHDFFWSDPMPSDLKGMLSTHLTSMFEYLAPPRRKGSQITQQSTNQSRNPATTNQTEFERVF
# Sequence (O60563 whole entry partner): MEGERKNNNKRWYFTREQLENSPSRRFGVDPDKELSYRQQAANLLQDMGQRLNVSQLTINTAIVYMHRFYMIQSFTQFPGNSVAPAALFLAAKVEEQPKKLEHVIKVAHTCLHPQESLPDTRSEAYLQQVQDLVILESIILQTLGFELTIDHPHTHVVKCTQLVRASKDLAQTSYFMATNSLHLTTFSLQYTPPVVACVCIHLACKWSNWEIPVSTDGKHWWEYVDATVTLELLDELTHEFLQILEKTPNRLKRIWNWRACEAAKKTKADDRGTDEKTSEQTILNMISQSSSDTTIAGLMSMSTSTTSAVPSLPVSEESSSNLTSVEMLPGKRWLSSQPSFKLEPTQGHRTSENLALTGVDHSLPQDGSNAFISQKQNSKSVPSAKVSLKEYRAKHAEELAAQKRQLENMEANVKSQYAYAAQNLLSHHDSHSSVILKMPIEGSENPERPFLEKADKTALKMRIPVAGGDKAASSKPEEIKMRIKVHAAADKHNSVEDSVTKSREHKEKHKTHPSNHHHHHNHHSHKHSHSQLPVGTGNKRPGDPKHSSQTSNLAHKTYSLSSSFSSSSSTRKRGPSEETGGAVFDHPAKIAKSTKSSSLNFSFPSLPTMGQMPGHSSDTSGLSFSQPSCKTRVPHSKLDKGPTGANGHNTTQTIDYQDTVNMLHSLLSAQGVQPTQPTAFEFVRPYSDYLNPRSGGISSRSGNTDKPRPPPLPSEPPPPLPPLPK
# assay.method.text: CDK9/Cyclin T kinase assay (Nanosyn, Caliper microfluidic)
# Assay type: biochemical
# assay.setup: 12-point dose-response, ATP at Km (10 μM), 17 hr; Table 5
Listing: IC50 of selected molecules

| molecule | IC50 [µM] |
| --- | --- |
| O=C1NCC2(CCCCC2)n2c1cc1cnc(N[C@@H]3CCCN[C@@H]3c3ccccc3)nc12 [Compound 9] | 1.6 |
| NS(=O)(=O)c1cccc(Nc2ncc3cc4n(c3n2)C2(CCCCC2)CNC4=O)c1 [Compound 42] | 0.0012 |
| O=C1NCC2(CCCCC2)n2c1cc1cnc(N[C@H]3CCCN[C@@H]3c3ccccc3)nc12 [Compound 10] | 0.08 |
| C[C@H]1NCCC[C@H]1C(=O)Nc1ncc2cc3n(c2n1)C1(CCCCC1)CNC3=O [Compound 30] | 0.045 |
| O=C1CC[C@H](Nc2ncc3cc4n(c3n2)C2(CCCCC2)CNC4=O)CN1 [Compound 24] | 0.025 |
| NS(=O)(=O)Cc1cccc(Nc2ncc3cc4n(c3n2)C2(CCCCC2)CNC4=O)c1 [Compound 43] | 10 |
| S=C1NCC2(CCCCC2)n2c1cc1cnc(N[C@@H]3CCCNC3)nc12 [Compound 41] | 0.0043 |
| O=C1NCC2(CCCCC2)n2c1cc1cnc(N[C@@H]3C[C@@H](O)CNC3=O)nc12 [Compound 8] | 0.44 |

* * *

Listing: IC50 of selected compounds
# system: CDK4/Cyclin D1 (Homo sapiens, UniProt P11802)
# Sequence (P11802 whole entry): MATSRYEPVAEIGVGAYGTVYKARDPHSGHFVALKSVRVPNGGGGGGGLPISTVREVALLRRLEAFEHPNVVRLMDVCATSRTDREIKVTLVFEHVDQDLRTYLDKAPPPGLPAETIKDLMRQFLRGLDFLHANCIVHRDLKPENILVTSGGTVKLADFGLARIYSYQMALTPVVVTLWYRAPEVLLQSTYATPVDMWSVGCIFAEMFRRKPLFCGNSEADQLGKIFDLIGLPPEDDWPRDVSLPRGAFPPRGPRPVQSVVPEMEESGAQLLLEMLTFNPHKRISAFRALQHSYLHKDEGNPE
# Sequence (P24385 whole entry partner): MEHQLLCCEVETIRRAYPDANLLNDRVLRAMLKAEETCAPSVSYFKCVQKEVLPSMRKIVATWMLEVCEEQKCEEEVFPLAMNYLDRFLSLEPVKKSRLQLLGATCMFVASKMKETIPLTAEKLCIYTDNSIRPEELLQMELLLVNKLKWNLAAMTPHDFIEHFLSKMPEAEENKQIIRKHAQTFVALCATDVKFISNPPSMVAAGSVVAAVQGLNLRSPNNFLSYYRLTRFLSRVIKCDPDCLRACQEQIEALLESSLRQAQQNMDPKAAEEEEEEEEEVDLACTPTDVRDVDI
# assay.method.text: CDK4/Cyclin D1 kinase assay (Nanosyn, Caliper microfluidic)
# Format: biochemical
# assay.setup: 12-point dose-response, ATP at Km (200 μM), 3 hr; Table 4
measured.quantity: IC50 (nM)

| compound | measured.quantity | val |
| --- | --- | --- |
| C1=NCC2(CCCCC2)n2c1cc1cnc(N[C@H]3CCCNC3)nc12 [Compound 50] | IC50 | 310 |
| O=C1NCC2(CCCCC2)n2c1cc1cnc(N[C@H]3CC[C@H](N4CCOCC4)CC3)nc12 [Compound 44] | IC50 | 24 |
| S=C1NCC2(CCCCC2)n2c1cc1cnc(N[C@H]3CCCNC3)nc12 [Compound 40] | IC50 | 23 |
| O=C1NCC2(CCCCC2)n2c1cc1cnc(N[C@H]3CCCNC3)nc12 [Compound 47] | IC50 | 130 |
| O=C1NCC2(CCCCC2)n2c1cc1cnc(N[C@H]3CCCNC3=O)nc12 [Compound 23] | IC50 | 170 |
| N[C@H]1CC[C@@H](Nc2ncc3cc4n(c3n2)C2(CCCCC2)CN=C4)CC1 [Compound 55] | IC50 | 92 |
| C[C@H]1CC[C@@H](Nc2ncc3cc4n(c3n2)C2(CCCCC2)CN=C4)CC1 [Compound 53] | IC50 | 2900 |
| O=C1NCC2(CCCCC2)n2c1cc1cnc(N[C@H]3Cc4ccccc4NC3=O)nc12 [Compound 27] | IC50 | 270 |

* * *

# system: CDK3/Cyclin E (Homo sapiens, UniProt Q00526)
# Sequence (Q00526 whole entry): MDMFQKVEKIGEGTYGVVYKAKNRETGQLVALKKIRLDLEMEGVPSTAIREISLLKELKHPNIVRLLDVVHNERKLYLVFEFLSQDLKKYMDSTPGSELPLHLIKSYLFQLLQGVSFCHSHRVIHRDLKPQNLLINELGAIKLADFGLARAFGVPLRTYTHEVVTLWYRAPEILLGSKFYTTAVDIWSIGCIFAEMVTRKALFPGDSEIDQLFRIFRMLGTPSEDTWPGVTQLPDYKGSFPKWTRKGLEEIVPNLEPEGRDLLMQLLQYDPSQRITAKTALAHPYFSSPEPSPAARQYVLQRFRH
# Sequence (P24864 whole entry partner): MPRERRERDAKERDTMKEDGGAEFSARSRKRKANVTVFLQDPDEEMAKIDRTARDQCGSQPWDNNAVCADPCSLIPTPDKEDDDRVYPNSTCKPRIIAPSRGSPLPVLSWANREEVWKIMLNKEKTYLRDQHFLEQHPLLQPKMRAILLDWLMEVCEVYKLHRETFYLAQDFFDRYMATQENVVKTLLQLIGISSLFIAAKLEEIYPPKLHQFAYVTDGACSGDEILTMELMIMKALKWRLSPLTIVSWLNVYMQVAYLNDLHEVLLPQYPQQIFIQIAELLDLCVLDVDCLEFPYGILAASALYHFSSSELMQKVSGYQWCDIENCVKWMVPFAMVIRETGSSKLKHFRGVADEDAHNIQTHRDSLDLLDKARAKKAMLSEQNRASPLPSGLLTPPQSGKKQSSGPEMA
# assay.method.text: CDK3/Cyclin E kinase assay (Nanosyn, Caliper microfluidic)
# assay.setup: 12-point dose-response, ATP at Km (400 μM), 3 hr

| smiles.str | relation.operator | IC50, nM |
| --- | --- | --- |
| O=C1NCC2(CCCCC2)n2c1cc1cnc(NC(=O)[C@H]3CCNC3)nc12 | = | 23000 |
| O=C1NCC2(CCCCC2)n2c1cc1cnc(N[C@H]3CCCNC3)nc12 | = | 110 |
| O=C1NCC2(CCCCC2)n2c1cc1cnc(N[C@H]3Cc4ccccc4NC3=O)nc12 | = | 26000 |
| CS(=O)(=O)N[C@H]1CC[C@H](Nc2ncc3cc4n(c3n2)C2(CCCCC2)CNC4=O)CC1 | = | 510 |
| O=C1NCC2(CCCCC2)n2c1cc1cnc(N[C@@H]3CCCN[C@@H]3c3ccccc3)nc12 | > | 100000 |
| O=C1NCC2(CCCCC2)n2c1cc1cnc(N[C@H]3CC[C@H](Nc4ncc(F)cn4)CC3)nc12 | = | 220 |
| O=C1NCC2(CCCCC2)n2c1cc1cnc(N[C@H]3CC[C@H](NCc4cccnc4)CC3)nc12 | = | 290 |
| O=C1CC[C@H](Nc2ncc3cc4n(c3n2)C2(CCCCC2)CNC4=O)CN1 | = | 290 |
| O=C1NCC2(CCCCC2)n2c1cc1cnc(NC(=O)[C@H]3CNCC[C@H]3c3ccccc3)nc12 | > | 100000 |
| N[C@H]1CC[C@@H](Nc2ncc3cc4n(c3n2)C2(CCCCC2)CN=C4)CC1 | = | 460 |
| C1=NCC2(CCCCC2)n2c1cc1cnc(N[C@H]3CCCNC3)nc12 | = | 64 |
| O=C1NCC2(CCCCC2)n2c1cc1cnc(N[C@H]3CC[C@H](NC4CCOCC4)CC3)nc12 | = | 240 |
| O=C1NCC2(CCCCC2)n2c1cc1cnc(NC(=O)[C@@H]3CCNC3)nc12 | = | 8600 |
